# Tested on: transactivating tegument protein VP16 (Human herpesvirus 1), Gal4-VP16 luciferase reporter
# method: VP16 transactivation inhibitors, counter-screen for SRC3 inhibitor project, cell-based, luminescence, high throughput (AID 588794)
# condition_description: mammalian cells, VP16-driven luciferase reporter luminescence; at 3.6 µM; active compounds read high
Returns one of Condition met or Condition not met; Condition met when inhibition is >= 60%.

molecule | qualitative_label
O=c1ccc2ccccc2c2ccccc12 | Condition met
CCCCCCCCn1c2c(c(=N)c3c1CCC3)CCCC2 | Condition met
Brc1ccc(N=Nc2ccc3ccccc3n2)cc1 | Condition not met
Nc1ncn([C@@H]2O[C@H](CO)[C@@H](O)[C@H]2O)c(=O)n1 | Condition not met

Task: Kindly determine if inhibition recorded for "CC(=O)Nc1ccc(NC2=C/C(=N/S(=O)(=O)c3cccs3)c3ccccc3C2=O)cc1" is above or exactly 60%.
Output: Condition not met

Task: Lookup "COC(=O)c1cc(Cl)cc(Cl)c1OS(=O)(=O)N(C)C"
Output: Condition not met
